// provenance: patent US9789181B2

Measured IC50 values are reported for all entries that follow.
- tested.system: purified HLA DRB1 *1302 (Homo sapiens, UniProt P01903+P01911, A100E/A169T/K41T/L162R/M171V/P40S/Q125H/Q178H/Q39Y/Q99D/R42S/S66N/T262R/V115G/W38E/Y61H)
- Sequence (P01903 26-254 limits assumed, other chains not shown): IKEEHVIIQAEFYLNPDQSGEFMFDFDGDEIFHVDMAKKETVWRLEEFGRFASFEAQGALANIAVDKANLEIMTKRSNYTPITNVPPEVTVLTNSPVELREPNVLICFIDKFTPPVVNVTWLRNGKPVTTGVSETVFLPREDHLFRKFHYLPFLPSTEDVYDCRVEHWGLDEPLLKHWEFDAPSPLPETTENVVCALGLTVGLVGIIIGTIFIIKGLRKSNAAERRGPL
- protocol.summary: IC50nM to purified HLA | DRB1 *1302
Where no end group is shown, it is not given here.
measured.parameter: IC50 (nM)

> print(dat)
                    entry.sequence  measured.parameter  readout.units  experimental.value
1  AAAYFVAAWTLKAAA [SEQ ID NO: 20]                IC50             nM                 917
2  AAAFFVAAWTLKAAA [SEQ ID NO: 11]                IC50             nM                2810
3   AAAWFVAAYTLHAAA [SEQ ID NO: 8]                IC50             nM                3110
4  AAAHFVAAWTLHAAA [SEQ ID NO: 26]                IC50             nM                1190
5  AAAFFVAANTLKADA [SEQ ID NO: 19]                IC50             nM                 187
6   AAAKFVAAWTLKAAA [SEQ ID NO: 4]                IC50             nM                 648
7  AAAYFVAAYTLHAAA [SEQ ID NO: 22]                IC50             nM                 830
8   AAAWFVAAWTLKAAA [SEQ ID NO: 5]                IC50             nM                2930
